Target: T1, biotinylated human 4-1BB (bio.h4-1BB) (human, UniProt Q07011 24-186, limits assumed, biotinylated (site not stated))
T1 construct: also called CD137
T1 sequence (Q07011 24-186 limits assumed): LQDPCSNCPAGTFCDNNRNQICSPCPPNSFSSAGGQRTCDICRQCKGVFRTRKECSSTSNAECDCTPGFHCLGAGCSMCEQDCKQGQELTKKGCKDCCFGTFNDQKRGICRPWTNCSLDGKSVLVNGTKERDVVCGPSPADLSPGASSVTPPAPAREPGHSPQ
Assay: SPR (ProteOn XPR36), biotinylated h4-1BB immobilised on GLC chip, construct as analyte
Experimental: Assay set-up: Briefly, SPR measurements were performed using a ProteOn XPR36 instrument (BioRad) as described above. […] The interaction of FAP-4-1BB bispecific constructs to the coated targets was measured by injecting the bispecific constructs in a serial dilution of 50, 16.7, 5.6, 1.9 and 0.6 nM with an association of 120 s and dissociation of 1800 s using a constant flow rate of 30 μl/min. […]
measurement-kind: pKd
Lab note — pKd values are minus log10 of concentrations in M.

Given the binder bispecific construct #48 (designed binder, 56 is used; also called FAP-4-1BB bispecific construct #48) MRGSHHHHHHGSDLGEKLLVAALYGQDDEVRILLAAGADVNAKDQWGLTPLHKAALQGHLEIVEVLLKAGADVNAKDERGHTPLHWAARFGHLEIVEVLLKAGADVNAQDQKGYTPADLAALWGHEDIAEVLQKAAGSPTPTPTTPTPTPTTPTPTPTGSDLGKKLLEAARAGQDDEVRELLKAGADVNAKDQEHGSTPLHLAANYGHLEIVEVLLKAGADVNAKNWWGNTPLHLAAVYGHLEIVEVLLKAGADVNAKDNHGHTPLHLAAWYGHLEIVEVLLKAGADVNAQDKSGKTPADLAADAGHEDIAEVLQKAA , what is its reported pKd?
9.36
